- assay_overview: maximum wavelength absorbable (λ max), UV absorption
- Type: physicochemical
- run_conditions: pH between 7.4 and 8 in a phosphate buffer
value_kind: λ max (nm)

O=C(O)c1ccc2[nH]c(-c3ccc(O)cc3)nc2c1 ... 312.5
O=S(=O)(O)c1ccc2[nH]c(-c3ccccc3)nc2c1 [reference compound] ... 302.5
Oc1ccc(-c2nc3ccccc3[nH]2)cc1O ... 311
O=C(O)c1ccc2[nH]c(-c3ccc(O)cc3O)nc2c1 ... 321.5
O=C(O)c1ccc2[nH]c(-c3ccc(O)c(O)c3)nc2c1 ... 317
Oc1ccc(-c2nc3ccccc3[nH]2)c(O)c1 ... 315.5
O=S(=O)(O)c1ccc2[nH]c(-c3ccc(O)c(O)c3)nc2c1 ... 313.5
